experiment: Cmax in C57BL/6 mouse at 10 mg/kg, po; assay type: ADME, organism-based; set-up: dose 10 mg/kg, route oral; conditions: in vivo
assay.endpoint: log10 Cmax (log10 of the value in ng/mL)
Please note: log10 values; quantity Cmax; unit ng/mL.

Here are 3 compounds together with their reported answers.
Need log10 Cmax of O=c1ccc2cnc3ccc(-c4cnc5[nH]ccc5c4)cc3c2n1-c1ccc(F)c(C(F)(F)F)c1 , thanks.
1.99

Item O=c1ccc2cnc3ccc(-c4cn[nH]c4)cc3c2n1-c1ccc(F)c(C(F)(F)F)c1 has what recorded log10 Cmax?
2.63

What log10 Cmax value was documented for this compound, Nc1ccc(-c2ccc3ncc4ccc(=O)n(-c5cccc(C(F)(F)F)c5)c4c3c2)cn1 ?
3.60

Next:
Need log10 Cmax, item Cc1cc(-n2c(=O)ccc3cnc4ccc(-c5cnn(C)c5)cc4c32)ccc1F
3.02

Please give the measured log10 Cmax for this compound: Cc1cc(-n2c(=O)ccc3cnc4ccc(-c5cn[nH]c5)cc4c32)ccc1F
2.93
